# measurement.target: Polyunsaturated fatty acid lipoxygenase ALOX15 (Homo sapiens, UniProt P16050)
# test.summary: Inhibition of human recombinant N-terminal His6-tagged 15-LOX1 expressed in Escherichia coli BL21(DE3) using linoleic acid as substrate preincubated for 8 mins followed by substrate addition by UV absorption analysis
pIC50: −log10 of the molar value.
pIC50 values, listed per item

Observe how each entry below is paired with its result.
- CCOC(=O)c1[nH]c2cc(Cl)ccc2c1/C=N/NC(=O)CC1CCCC1: < 5.00
- CCOC(=O)c1[nH]c2cc(Cl)ccc2c1/C=N/NC(=O)COc1ccc([N+](=O)[O-])cc1: < 5.00
- CCOC(=O)c1[nH]c2cc(Cl)ccc2c1/C=N/NC(=O)c1cc(C(C)(C)C)nn1Cc1cccc(C)c1: 5.37
- CCOC(=O)c1[nH]c2cc(Cl)ccc2c1/C=N/NC(=O)CCC(C)C: < 5.00
- CCOC(=O)c1[nH]c2cc(Cl)ccc2c1/C=N/NC(=O)Cc1cccc(O)c1: 5.74
- CCOC(=O)c1[nH]c2cc(Cl)ccc2c1/C=N/NC(=O)[C@H](Cc1ccccc1)NC(=O)OC(C)(C)C: < 5.00

Task item: // lookup pIC50 | system=Polyunsaturated fatty acid lipoxygenase ALOX15 (Homo sapiens, UniProt P16050) | key= "CCOC(=O)c1[nH]c2cc(Cl)ccc2c1/C=N/NC(=O)COc1ccccc1"
Reply: < 5.00

Task item: Kindly state the measured pIC50 obtained for "CCOC(=O)c1[nH]c2cc(Cl)ccc2c1/C=N/NC(=O)CNc1cccc([N+](=O)[O-])c1" with Polyunsaturated fatty acid lipoxygenase ALOX15 (Homo sapiens, UniProt P16050).
Reply: < 5.00

Task item: Form entry - test system: Polyunsaturated fatty acid lipoxygenase ALOX15 (Homo sapiens, UniProt P16050); read-out: pIC50; compound: "CCOC(=O)c1[nH]c2cc(Cl)ccc2c1/C=N/NC(=O)CCc1ccccc1"
Reply: < 5.00

====

# test.summary: Antioxidant activity assessed as DPPH radical scavenging activity incubated for 15 mins under dark condition by spectrophotometric method
# Assay type: functional
assay.readout: EC50 (µM)
Answer with a number only, understood to be in µM.

Task item: Recorded EC50 of O=C1O[C@H]([C@@H](O)CO)C(O)=C1O [ASCORBIC ACID] , please.
Reply: 17.2

====

# measurement.target: Polyunsaturated fatty acid lipoxygenase ALOX15 (Homo sapiens)
# Sequence (P16050 whole entry): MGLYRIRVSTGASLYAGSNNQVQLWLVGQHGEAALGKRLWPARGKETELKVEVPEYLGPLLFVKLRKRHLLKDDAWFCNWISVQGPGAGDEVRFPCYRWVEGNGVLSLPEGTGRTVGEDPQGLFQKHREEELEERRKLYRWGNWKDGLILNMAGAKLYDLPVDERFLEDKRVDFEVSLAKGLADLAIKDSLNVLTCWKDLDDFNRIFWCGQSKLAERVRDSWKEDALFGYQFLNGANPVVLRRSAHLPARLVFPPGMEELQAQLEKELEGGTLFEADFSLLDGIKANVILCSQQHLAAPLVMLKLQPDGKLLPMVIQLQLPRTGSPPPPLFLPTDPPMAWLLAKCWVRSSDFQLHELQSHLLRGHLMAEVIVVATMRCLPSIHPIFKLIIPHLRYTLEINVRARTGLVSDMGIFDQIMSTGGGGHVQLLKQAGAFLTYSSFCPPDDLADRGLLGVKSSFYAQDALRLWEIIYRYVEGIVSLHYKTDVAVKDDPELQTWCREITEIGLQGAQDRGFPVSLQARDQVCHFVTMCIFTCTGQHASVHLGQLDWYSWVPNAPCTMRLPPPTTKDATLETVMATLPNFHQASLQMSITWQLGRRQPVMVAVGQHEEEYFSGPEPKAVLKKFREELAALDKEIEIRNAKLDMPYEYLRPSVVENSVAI
# test.summary: Inhibition of human recombinant N-terminal His6-tagged 15-LOX1 expressed in Escherichia coli BL21(DE3) using linoleic acid as substrate preincubated for 8 mins followed by substrate addition by UV absorption analysis
pIC50: −log10 of the molar value.
Recorded pIC50 values for a group of molecules are listed next.

Worked set:
* CCOC(=O)c1[nH]c2cc(Cl)ccc2c1/C=N/NC(=O)COc1cccc2ccccc12 | < 5.00
* CCOC(=O)c1[nH]c2cc(Cl)ccc2c1/C=N/NC(=O)Cc1ccccc1 | < 5.00

Task item: Query (molecule): "CCOC(=O)c1[nH]c2cc(Cl)ccc2c1/C=N/NC(=O)CCCOc1ccc(Cl)cc1Cl" ; field requested: pIC50
Reply: < 5.00

Task item: Could you share which pIC50 value was measured for "CCOC(=O)c1[nH]c2cc(Cl)ccc2c1/C=N/NC(=O)C1CCN(C(=O)OC(C)(C)C)CC1" ?
Reply: 6.33

Task item: Bench note: what pIC50 did "CCOC(=O)c1[nH]c2cc(Cl)ccc2c1/C=N/NC(=O)Cc1cccs1" show?
Reply: < 5.00

Task item: Entry "CCCCC(=O)N/N=C/c1c(C(=O)OCC)[nH]c2cc(Cl)ccc12" has what pIC50?
Reply: < 5.00

Data provenance: ChEMBL document CHEMBL4393683
